# Test Summary: Plasma PK of H3B-6545 capsules in fasted patients, phase 1 dose escalation
# Type: in vivo, human
# Experimental Conditions: female, human, plasma, oral, 200 mg, Cycle 1 Day 15; 200 mg QD capsules, fasted patients; Median (Min, Max)
Measured Attribute: Tmax (h)
Give bare numbers, in h.

Enquiry: # get_value(readout='Tmax', item= CN(C)C(=O)/C=C/CNCCOc1ccc(/C(=C(/CC(F)(F)F)c2ccccc2)c2ccc3[nH]nc(F)c3c2)cn1 )
Return: 2.17

###

# Test Summary: Plasma PK of 450 mg capsules in fasted and fed patients, dose expansion
# Assay type: in vivo, human
# Experimental Conditions: human, plasma, oral, 450 mg, 450 mg QD capsules, Dose Expansion-Fed; Geometric Mean (GeoCV %)
Measured Attribute: AUC(0-inf) (ng·h/mL)
One number for each entry, in ng·h/mL.

Enquiry: # get_value(readout='AUC(0-inf)', item= CN(C)C(=O)/C=C/CNCCOc1ccc(/C(=C(/CC(F)(F)F)c2ccccc2)c2ccc3[nH]nc(F)c3c2)cn1 )
Return: 25500

###

# Test Summary: Plasma PK of H3B-6545 capsules in fasted patients, phase 1 dose escalation
# Format: in vivo, human
# Experimental Conditions: female, human, plasma, oral, 100 mg, Cycle 1 Day 1; 100 mg QD capsules, fasted patients; Geometric Mean (GeoCV %); read-out: Vz/F
# Procedure: Blood samples were collected at the planned time points from each patient and centrifuged. […] The concentration data were then analyzed using Phoenix® WinNonlin software to obtain PK parameters. […] Blood samples (approximately 5 mL each) were collected from human patients pre-dose and at various hourly time points post-dose. Plasma concentrations of H3B-6545 were determined using a validated high-performance liquid chromatography/tandem mass spectrometry (LC-MS/MS) method. […]
Measured Attribute: Vd/F (L)
Answers are plain numbers, in L.

Enquiry: # get_value(readout='Vd/F', item= CN(C)C(=O)/C=C/CNCCOc1ccc(/C(=C(/CC(F)(F)F)c2ccccc2)c2ccc3[nH]nc(F)c3c2)cn1 [H3B-6545] )
Return: 689

###

# Test Summary: Plasma PK of H3B-6545 capsules in fasted patients, phase 1 dose escalation
# Assay type: in vivo, human
# Experimental Conditions: female, human, plasma, oral, 100 mg, Cycle 1 Day 15; 100 mg QD capsules, fasted patients; Geometric Mean (GeoCV %); read-out: AUC0-24
Measured Attribute: AUC(0-t)

Enquiry: # get_value(readout='AUC(0-t)', item= CN(C)C(=O)/C=C/CNCCOc1ccc(/C(=C(/CC(F)(F)F)c2ccccc2)c2ccc3[nH]nc(F)c3c2)cn1 [H3B-6545] )
Return: 2560 ng·h/mL

###

# Test Summary: Plasma PK of H3B-6545 capsules in fasted patients, phase 1 dose escalation
# Type: in vivo, human
# Experimental Conditions: female, human, plasma, oral, 600 mg, Cycle 1 Day 1; 600 mg QD capsules, fasted patients; Geometric Mean (GeoCV %)
Measured Attribute: AUC(0-inf) (ng·h/mL)
Numbers only, in ng·h/mL.

Enquiry: # get_value(readout='AUC(0-inf)', item= CN(C)C(=O)/C=C/CNCCOc1ccc(/C(=C(/CC(F)(F)F)c2ccccc2)c2ccc3[nH]nc(F)c3c2)cn1 )
Return: 32900

###

# Test Summary: Plasma PK of H3B-6545 capsules in fasted patients, phase 1 dose escalation
# Assay type: in vivo, human
# Experimental Conditions: female, human, plasma, oral, 600 mg, Cycle 1 Day 1; 600 mg QD capsules, fasted patients; Geometric Mean (GeoCV %)
Measured Attribute: half-life (h)
Give bare numbers, in h.

Enquiry: # get_value(readout='half-life', item= CN(C)C(=O)/C=C/CNCCOc1ccc(/C(=C(/CC(F)(F)F)c2ccccc2)c2ccc3[nH]nc(F)c3c2)cn1 )
Return: 13.1

###

# Test Summary: Plasma PK of H3B-6545 capsules in fasted patients, phase 1 dose escalation
# Assay type: in vivo, human
# Experimental Conditions: female, human, plasma, oral, 200 mg, Cycle 1 Day 1; 200 mg QD capsules, fasted patients; Geometric Mean (GeoCV %)
Measured Attribute: half-life (h)
One number for each entry, in h.

Enquiry: # get_value(readout='half-life', item= CN(C)C(=O)/C=C/CNCCOc1ccc(/C(=C(/CC(F)(F)F)c2ccccc2)c2ccc3[nH]nc(F)c3c2)cn1 )
Return: 9.73

###

# Test Summary: Plasma PK of H3B-6545 capsules in fasted patients, phase 1 dose escalation
# Type: in vivo, human
# Experimental Conditions: female, human, plasma, oral, 200 mg, Cycle 1 Day 1; 200 mg QD capsules, fasted patients; Geometric Mean (GeoCV %)
Measured Attribute: Cmax (ng/mL)
Numbers only, in ng/mL.

Enquiry: # get_value(readout='Cmax', item= CN(C)C(=O)/C=C/CNCCOc1ccc(/C(=C(/CC(F)(F)F)c2ccccc2)c2ccc3[nH]nc(F)c3c2)cn1 )
Return: 473

###

# Test Summary: Plasma PK of 450 mg capsules in fasted and fed patients, dose expansion
# Type: in vivo, human
# Experimental Conditions: human, plasma, oral, 450 mg, 450 mg QD capsules, Dose Expansion-Fasted; Geometric Mean (GeoCV %); read-out: AUC0-t
# Experimental: Blood samples were collected at the planned time points from each patient and centrifuged. […] The concentration data were then analyzed using Phoenix® WinNonlin software to obtain PK parameters. […] Blood samples (approximately 5 mL each) were collected from human patients pre-dose and at various hourly time points post-dose. Plasma concentrations of H3B-6545 were determined using a validated high-performance liquid chromatography/tandem mass spectrometry (LC-MS/MS) method. […]
Measured Attribute: AUC(0-t)
Dear colleague, please send the value followed by its unit.

Enquiry: # get_value(readout='AUC(0-t)', item= CN(C)C(=O)/C=C/CNCCOc1ccc(/C(=C(/CC(F)(F)F)c2ccccc2)c2ccc3[nH]nc(F)c3c2)cn1 )
Return: 12500 ng·h/mL

###

# Test Summary: Plasma PK of H3B-6545 capsules in fasted patients, phase 1 dose escalation
# Type: in vivo, human
# Experimental Conditions: female, human, plasma, oral, 600 mg, Cycle 1 Day 15; 600 mg QD capsules, fasted patients; Geometric Mean (GeoCV %); read-out: Vss
Measured Attribute: Vd (L)
Answers are plain numbers, in L.

Enquiry: # get_value(readout='Vd', item= CN(C)C(=O)/C=C/CNCCOc1ccc(/C(=C(/CC(F)(F)F)c2ccccc2)c2ccc3[nH]nc(F)c3c2)cn1 )
Return: 1100

###

# Test Summary: Plasma PK of H3B-6545 capsules in fasted patients, phase 1 dose escalation
# Type: in vivo, human
# Experimental Conditions: female, human, plasma, oral, 300 mg, Cycle 1 Day 15; 300 mg QD capsules, fasted patients; Geometric Mean (GeoCV %); read-out: Vss
Measured Attribute: Vd
Dear colleague, please send the value followed by its unit.

Enquiry: # get_value(readout='Vd', item= CN(C)C(=O)/C=C/CNCCOc1ccc(/C(=C(/CC(F)(F)F)c2ccccc2)c2ccc3[nH]nc(F)c3c2)cn1 )
Return: 373 L

###

# Test Summary: Plasma PK of H3B-6545 capsules in fasted patients, phase 1 dose escalation
# Assay type: in vivo, human
# Experimental Conditions: female, human, plasma, oral, 300 mg, Cycle 1 Day 15; 300 mg QD capsules, fasted patients; Geometric Mean (GeoCV %)
Measured Attribute: Cmax (ng/mL)
Answers are plain numbers, in ng/mL.

Enquiry: # get_value(readout='Cmax', item= CN(C)C(=O)/C=C/CNCCOc1ccc(/C(=C(/CC(F)(F)F)c2ccccc2)c2ccc3[nH]nc(F)c3c2)cn1 [H3B-6545] )
Return: 1200

###

# Test Summary: Plasma PK of 450 mg capsules in fasted and fed patients, dose expansion
# Format: in vivo, human
# Experimental Conditions: human, plasma, oral, 450 mg, 450 mg QD capsules, Dose Expansion-Fasted; Geometric Mean (GeoCV %)
Measured Attribute: half-life (h)
Answers are plain numbers, in h.

Enquiry: # get_value(readout='half-life', item= CN(C)C(=O)/C=C/CNCCOc1ccc(/C(=C(/CC(F)(F)F)c2ccccc2)c2ccc3[nH]nc(F)c3c2)cn1 )
Return: 10.9

###

# Test Summary: Plasma PK of H3B-6545 capsules in fasted patients, phase 1 dose escalation
# Format: in vivo, human
# Experimental Conditions: female, human, plasma, oral, 450 mg, Cycle 1 Day 15; 450 mg QD capsules, fasted patients; Geometric Mean (GeoCV %)
# Protocol: Blood samples were collected at the planned time points from each patient and centrifuged. […] The concentration data were then analyzed using Phoenix® WinNonlin software to obtain PK parameters. […] Blood samples (approximately 5 mL each) were collected from human patients pre-dose and at various hourly time points post-dose. Plasma concentrations of H3B-6545 were determined using a validated high-performance liquid chromatography/tandem mass spectrometry (LC-MS/MS) method. […]
Measured Attribute: half-life (h)
Numbers only, in h.

Enquiry: # get_value(readout='half-life', item= CN(C)C(=O)/C=C/CNCCOc1ccc(/C(=C(/CC(F)(F)F)c2ccccc2)c2ccc3[nH]nc(F)c3c2)cn1 )
Return: 9.81
